Tested on: antibodies in sera from SARS patients (sera 1a, 1b, 2, 6, 37, 62, London, SARS-yellow, SARS-green)
Format: binding, human
Binding of serum SARS-green to looped/cyclic peptides of protein X1 of SARS-CoV Urbani values by entry
Lab note: record the figure alone, no unit after it.

Worked set:
DTGIENATFFIFNKL: 0.4
NSVTDTIVVTEGDGI: 0.3
NATFFIFNKLVKDPP: 0.2
VTEGDGISTPKLKED: 0.1
TEGDGISTPKLKEDY: 0.3
PNVQIHTIDGSSGVA: 0.2

Proceed to the following item.
Record `VHGYFTEVYYQLEST` . Reported Binding of serum SARS-green to looped/cyclic peptides of protein X1 of SARS-CoV Urbani: 0.3

###

Test system: antibodies in sera from SARS patients (sera 1a, 1b, 2, 6, 37, 62, London, SARS-yellow, SARS-green)
Assay type: binding, human
Parameters: unit not given here
assay-metric: Binding of serum 37 to linear peptides of protein X2
Lab note: record the figure alone, no unit after it.

Worked set:
SLLKVTAFQHQNSKK: 0.4
ILRIGTQVLKTMSLY: 0.6
IQFMMSRRRLLACLC: 0.6
QSTALQELLIQQWIQ: 0.5
WIQFMMSRRRLLACL: 0.5
SQIQLSLLKVTAFQH: 0.5

Record `MAISPKFTTSLSLHK` . Reported Binding of serum 37 to linear peptides of protein X2: 0.7

Record `ITVSQIQLSLLKVTA` . Reported Binding of serum 37 to linear peptides of protein X2: 0.6

###

Binding of serum 6 to linear peptide (PEPSCAN-ELISA) values by entry
System: antibodies in sera from SARS patients (sera 1a, 1b, 2, 6, 37, 62, London, SARS-yellow, SARS-green)
Format: binding, human
Set-up: unit not given here
Lab note: record the figure alone, no unit after it.

Record `ETALALLLLDRLNQL` . Reported Binding of serum 6 to linear peptide (PEPSCAN-ELISA): 0.1

Record `ASSRSSSRSRGNSRN` . Reported Binding of serum 6 to linear peptide (PEPSCAN-ELISA): 0.2

Record `LLDRLNQLESKVSGK` . Reported Binding of serum 6 to linear peptide (PEPSCAN-ELISA): 0.2

Record `SRNSTPGSSRGNSPA` . Reported Binding of serum 6 to linear peptide (PEPSCAN-ELISA): 0.2

Record `ESKVSGKGQQQQGQT` . Reported Binding of serum 6 to linear peptide (PEPSCAN-ELISA): 0.2

Record `TQGNFGDQDLIRQGT` . Reported Binding of serum 6 to linear peptide (PEPSCAN-ELISA): 0.2

Record `LNQLESKVSGKGQQQ` . Reported Binding of serum 6 to linear peptide (PEPSCAN-ELISA): 0.2

Record `SQASSRSSSRSRGNS` . Reported Binding of serum 6 to linear peptide (PEPSCAN-ELISA): 0.4

Record `GGGETALALLLLDRL` . Reported Binding of serum 6 to linear peptide (PEPSCAN-ELISA): 0.1

###

Tested on: rabbit serum obtained by immunizing a rabbit with the SARS-CoV strain Frankfurt 1
Type: binding
Set-up: unit not given here
assay-metric: Rabbit serum linear peptides
Lab note: record the figure alone, no unit after it.

Worked set:
TCTSTHFAFACADGT: 0.5
LFARTRSMWSFNPET: 0.1
LPFHRWHTMVQTCTP: 0.5
QEEVQQELYSPLFLI: 0.4

Record `GTIVTRPLMESELVI` . Reported Rabbit serum linear peptides: 0.1

Record `PAGGALIARCWYLHE` . Reported Rabbit serum linear peptides: 0.5

Record `RQLFKPLTKKNYSEL` . Reported Rabbit serum linear peptides: 0.3

Record `GHLRMAGHPLGRCDI` . Reported Rabbit serum linear peptides: 0.4

Record `LYSPLFLIVAALVFL` . Reported Rabbit serum linear peptides: 0.4

Record `SIVRQLFKPLTKKNY` . Reported Rabbit serum linear peptides: 0.3

Record `HLVDFQVTIAEILII` . Reported Rabbit serum linear peptides: 0.3

###

Test system: control sera (pooled serum of ten healthy LUMC hospital workers; commercial negative donor pooled serum from the Dutch bloodbank)
Format: binding, human
Set-up: unit not given here
Decide using Binding of Control serum Blood-bank to linear peptides: a value greater than or equal to 0.8 is true, a smaller one is false.

HFAFACADGTRHTYQ: false
KSAAEASKKPRQKRT: false
RNSTPGSSRGNSPAR: true

Would you kindly look at the next entry?
Determine whether measured Binding of Control serum Blood-bank to linear peptides meets or exceeds 0.8 for `LSLHKLLQTLVLKML`
false

###

Binding of a rabbit serum to linear peptides values by entry
System: rabbit serum obtained by immunizing a rabbit with the SARS-CoV strain Frankfurt 1
Type: binding
Parameters: unit not given here
Lab note: record the figure alone, no unit after it.

GMEAQFLYLYALIYF: 0.1
ALIYFLQCINACRII: 0.7
IMRCWLCWKGKSKNP: 0.1
YSHLLLVAAGMEAQF: 0.1
LLKVTAFQHQNSKKT: 0.6

Record `LFAGTHITMTTVYHI` . Reported Binding of a rabbit serum to linear peptides: 0.6

###

Binding of serum 37 to looped/cyclic peptides of protein X4 of SARS-CoV Urbani values by entry
System: antibodies in sera from SARS patients (sera 1a, 1b, 2, 6, 37, 62, London, SARS-yellow, SARS-green)
Type: binding, human
Design: unit not given here

Worked set:
FLIVAALVFLILCFT: 0.7
LYSPLFLIVAALVFL: 0.5
AFACADGTRHTYQLR: 0.6
LTLIVFTSCELYHYQ: 0.7
PCPSGTYEGNSPFHP: 0.7
FAFACADGTRHTYQL: 0.6
FTSCELYHYQECVRG: 0.8
ELYSPLFLIVAALVF: 0.6
SPKLFIRQEEVQQEL: 0.8

Record `FLTLIVFTSCELYHY` . Reported Binding of serum 37 to looped/cyclic peptides of protein X4 of SARS-CoV Urbani: 0.7

###

System: antibodies in sera from SARS patients (sera 1a, 1b, 2, 6, 37, 62, London, SARS-yellow, SARS-green)
Assay type: binding, human
assay-metric: Binding of serum 62 to looped/cyclic peptides of protein X5 of SARS-CoV Urbani

YNTRGNTYSTAWLCA: 0.2
VQTCTPNVTINCQDP: 0.6
CLKILVRYNTRGNTY: 0.7
FHRWHTMVQTCTPNV: 0.4

Proceed to the following item.
Record `TAWLCALGKVLPFHR` . Reported Binding of serum 62 to looped/cyclic peptides of protein X5 of SARS-CoV Urbani: 0.7

###

System: antibodies in sera from SARS patients (sera 1a, 1b, 2, 6, 37, 62, London, SARS-yellow, SARS-green)
Format: binding, human
assay-metric: Binding of serum 2 to linear peptides of protein N of SARS-CoV Urbani
Lab note: record the figure alone, no unit after it.

Record `NQNGGRNGARPKQRR` . Reported Binding of serum 2 to linear peptides of protein N of SARS-CoV Urbani: 0.3

###

System: antibodies in sera from SARS patients (sera 1a, 1b, 2, 6, 37, 62, London, SARS-yellow, SARS-green)
Format: binding, human
Set-up: unit not given here
assay-metric: Binding of serum 6 to linear peptides of protein X4 of SARS-CoV Urbani
Lab note: record the figure alone, no unit after it.

Worked set:
RHTYQLRARSVSPKL: 1.1
LRARSVSPKLFIRQE: 0.8
HFAFACADGTRHTYQ: 0.6
ARSVSPKLFIRQEEV: 0.6
PCPSGTYEGNSPFHP: 0.5
ALTCTSTHFAFACAD: 0.6

Record `LTLIVFTSCELYHYQ` . Reported Binding of serum 6 to linear peptides of protein X4 of SARS-CoV Urbani: 0.5

Record `FLIVAALVFLILCFT` . Reported Binding of serum 6 to linear peptides of protein X4 of SARS-CoV Urbani: 0.5

###

System: antibodies in sera from SARS patients (sera 1a, 1b, 2, 6, 37, 62, London, SARS-yellow, SARS-green)
Assay type: binding, human
Set-up: unit not given here
Binding of serum 37 to looped/cyclic peptides of protein X1 of SARS-CoV Urbani values by entry
Lab note: record the figure alone, no unit after it.

NATFFIFNKLVKDPP: 0.4
TIDGSSGVANPAMDP: 0.3
VHGYFTEVYYQLEST: 0.5
TEVYYQLESTQITTD: 0.5
VYYQLESTQITTDTG: 0.4
PNVQIHTIDGSSGVA: 0.3

Proceed to the following item.
Record `VTEGDGISTPKLKED` . Reported Binding of serum 37 to looped/cyclic peptides of protein X1 of SARS-CoV Urbani: 0.3

###

Control serum LUMC linear peptides values by entry
System: control sera (pooled serum of ten healthy LUMC hospital workers; commercial negative donor pooled serum from the Dutch bloodbank)
Format: binding, human
Lab note: record the figure alone, no unit after it.

QFKDNVILLNKHIDA: 0.6

Record `KQPTVTLLPAADMDD` . Reported Control serum LUMC linear peptides: 0.7

Record `SASAFFGMSRIGMEV` . Reported Control serum LUMC linear peptides: 0.6

Record `LLPAADMDDFSRQLQ` . Reported Control serum LUMC linear peptides: 0.6

Record `PSASAFFGMSRIGME` . Reported Control serum LUMC linear peptides: 0.6
